# key: entry, value: phosphorylation enrichment
# TARGET_DESC: MERTK (UniProt Q12866)
# Sequence (Q12866 whole entry, looked up): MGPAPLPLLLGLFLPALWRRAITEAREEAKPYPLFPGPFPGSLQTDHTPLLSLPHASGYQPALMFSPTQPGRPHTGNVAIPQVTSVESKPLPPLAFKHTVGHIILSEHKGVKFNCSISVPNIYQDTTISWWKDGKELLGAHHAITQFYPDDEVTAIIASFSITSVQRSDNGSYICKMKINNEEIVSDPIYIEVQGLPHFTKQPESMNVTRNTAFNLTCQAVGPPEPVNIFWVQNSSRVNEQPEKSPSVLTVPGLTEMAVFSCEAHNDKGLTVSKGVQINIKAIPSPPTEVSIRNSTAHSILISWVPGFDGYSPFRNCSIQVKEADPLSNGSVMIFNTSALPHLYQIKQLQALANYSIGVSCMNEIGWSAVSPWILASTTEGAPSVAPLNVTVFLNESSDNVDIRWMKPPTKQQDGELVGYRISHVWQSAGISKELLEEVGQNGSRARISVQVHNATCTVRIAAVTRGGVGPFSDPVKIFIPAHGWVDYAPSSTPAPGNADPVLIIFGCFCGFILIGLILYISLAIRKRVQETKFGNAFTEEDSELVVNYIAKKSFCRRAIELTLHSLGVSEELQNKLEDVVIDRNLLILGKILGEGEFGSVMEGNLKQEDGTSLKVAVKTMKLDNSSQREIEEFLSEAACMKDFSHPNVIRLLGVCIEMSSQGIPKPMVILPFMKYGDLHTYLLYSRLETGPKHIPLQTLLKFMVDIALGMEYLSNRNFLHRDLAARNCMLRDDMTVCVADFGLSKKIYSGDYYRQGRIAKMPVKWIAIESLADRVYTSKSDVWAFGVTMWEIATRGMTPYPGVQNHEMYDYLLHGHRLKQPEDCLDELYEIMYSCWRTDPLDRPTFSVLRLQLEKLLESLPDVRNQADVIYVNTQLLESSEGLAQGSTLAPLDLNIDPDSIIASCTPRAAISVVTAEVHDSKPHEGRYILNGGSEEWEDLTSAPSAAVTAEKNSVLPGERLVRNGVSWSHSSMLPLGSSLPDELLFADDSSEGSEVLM
# EXPERIMENT_SUMMARY: phosphorylation enrichment, bacterial display (enrichment ratio); higher = better substrate or ligand; peptides without Tyr show the background
# output: bare number, no unit

Missing value: phosphorylation enrichment, MERTK (UniProt Q12866), entry AFPGEYIPTVF [RAC1_Y32] . Fill in?
0.474

Missing value: phosphorylation enrichment, MERTK (UniProt Q12866), entry ELTSKYRGGGG [HBA1_Y141_V136E] . Fill in?
0.503

Missing value: phosphorylation enrichment, MERTK (UniProt Q12866), entry QDEHGYIFRCF [HSPB1_Y133_S135F] . Fill in?
0.524

----------
# TARGET_DESC: Fyn (UniProt P06241)
# Sequence (P06241 whole entry, looked up): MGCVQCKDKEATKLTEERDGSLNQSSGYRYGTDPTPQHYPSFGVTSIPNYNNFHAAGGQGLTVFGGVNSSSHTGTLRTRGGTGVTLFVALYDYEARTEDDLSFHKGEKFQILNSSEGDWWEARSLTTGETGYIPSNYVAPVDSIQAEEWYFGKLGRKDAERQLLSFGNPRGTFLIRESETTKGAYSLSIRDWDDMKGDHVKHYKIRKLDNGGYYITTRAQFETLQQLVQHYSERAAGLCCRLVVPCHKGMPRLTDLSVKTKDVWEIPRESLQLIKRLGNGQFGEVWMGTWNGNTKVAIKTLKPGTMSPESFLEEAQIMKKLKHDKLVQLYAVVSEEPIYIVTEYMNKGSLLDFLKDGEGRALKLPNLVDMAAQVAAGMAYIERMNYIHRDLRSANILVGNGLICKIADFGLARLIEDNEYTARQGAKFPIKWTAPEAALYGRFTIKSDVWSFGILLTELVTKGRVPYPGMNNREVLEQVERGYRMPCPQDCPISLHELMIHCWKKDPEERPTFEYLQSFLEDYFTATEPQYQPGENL
# EXPERIMENT_SUMMARY: phosphorylation enrichment, bacterial display (enrichment ratio); higher = better substrate or ligand; peptides without Tyr show the background
# key: entry, value: phosphorylation enrichment
# output: bare number, no unit

Reference set, count: 5
record_sequence="RRMLQYLTVND [PPFIBP2_Y663]" target_desc="Fyn (UniProt P06241)" observed_result=0.501
record_sequence="RRSQSYIPTSG [PLEKHA2_Y185]" target_desc="Fyn (UniProt P06241)" observed_result=0.707
record_sequence="NGRQCYSCKGN [PLAUR_Y217]" target_desc="Fyn (UniProt P06241)" observed_result=0.324
record_sequence="DPHKIYEFVNS [IRF3_Y107]" target_desc="Fyn (UniProt P06241)" observed_result=9.53
record_sequence="SQQTYYRVSNM [ABCD1_Y181]" target_desc="Fyn (UniProt P06241)" observed_result=1.47

Please find the next sequence below.
I would be grateful if you could share the reported phosphorylation enrichment for NKEPRYQEDPP [TJP2_Y479] .
0.693

----------
# key: entry, value: SH2 binding enrichment
# TARGET_DESC: c-Src SH2
# EXPERIMENT_SUMMARY: SH2 binding enrichment of the phosphorylated peptide, bacterial display (enrichment ratio); higher = better substrate or ligand; peptides without Tyr show the background
# output: bare number, no unit

record_sequence="KPVEEYANCHL [TF_Y593]" target_desc="c-Src SH2" value_type="SH2 binding enrichment" observed_result=1.25
record_sequence="GKSDPYHATSG [GJA1_Y247]" target_desc="c-Src SH2" value_type="SH2 binding enrichment" observed_result=0.518
record_sequence="QNTGVYYDLYG [PTPN11_Y62_D61V]" target_desc="c-Src SH2" value_type="SH2 binding enrichment" observed_result=4.65
record_sequence="GQDLLYEDEDL [PACS1_Y303_F302L]" target_desc="c-Src SH2" value_type="SH2 binding enrichment" observed_result=0.505
record_sequence="MAALSYVSEIG [BPIFB2_Y36_K31M]" target_desc="c-Src SH2" value_type="SH2 binding enrichment" observed_result=0.478

I would be grateful if you could share the reported SH2 binding enrichment for RLLVVYHWTQR [HBD_Y36_P37H] .
1.27

I would be grateful if you could share the reported SH2 binding enrichment for LAAAGYDVKKN [H1-3_Y72_E75K] .
0.323

I would be grateful if you could share the reported SH2 binding enrichment for RVVVPYEPPEV [TP53_Y220_S215R] .
1.03

I would be grateful if you could share the reported SH2 binding enrichment for STEAIYRRYSK [SH3PXD2B_Y42] .
0.557

I would be grateful if you could share the reported SH2 binding enrichment for FVPAAYVKKLD [SPTAN1_Y1020] .
0.384

I would be grateful if you could share the reported SH2 binding enrichment for VNTTLYEKFTF [TEK_Y1108_YF] .
0.882

I would be grateful if you could share the reported SH2 binding enrichment for GAMGHYVLAER [HFE_Y342] .
2.46

I would be grateful if you could share the reported SH2 binding enrichment for GEFHVYRHLRW [PRKRIP1_Y82_R87W] .
0.887

I would be grateful if you could share the reported SH2 binding enrichment for LERFIYNREEF [HLA-DPB1_Y59_F64Y_YF] .
0.607

I would be grateful if you could share the reported SH2 binding enrichment for RKEAQYMLENE [SLC16A6_Y224] .
0.703

I would be grateful if you could share the reported SH2 binding enrichment for LNWIYYKDQTG [RS1_Y166] .
1.18

I would be grateful if you could share the reported SH2 binding enrichment for KLIMEYLPFGS [JAK2_Y931_YF] .
0.714

I would be grateful if you could share the reported SH2 binding enrichment for IALNSCHSRNC [IFNGR1_Y397_Y397C] .
0.628

----------
# TARGET_DESC: SHP2-C SH2
# EXPERIMENT_SUMMARY: SH2 binding enrichment of the phosphorylated peptide, bacterial display (enrichment ratio); higher = better substrate or ligand; peptides without Tyr show the background
VALUE_TYPE: SH2 binding enrichment
# output: bare number, no unit

Reference set, count: 3
record_sequence="IHYPPYTDWNQ [ALDH3B2_Y365]" observed_result=0.71
record_sequence="DVAKEYGHLLP [HRC_Y99_S96A]" observed_result=0.604
record_sequence="ILTLKYPIELG [ACTA1_Y71_H75L]" observed_result=0.94

Please find the next sequence below.
I would be grateful if you could share the reported SH2 binding enrichment for GFSDPYVKASL [SYT3_Y470] .
0.801

----------
# TARGET_DESC: Fes (UniProt P07332)
# Sequence (P07332 whole entry, looked up): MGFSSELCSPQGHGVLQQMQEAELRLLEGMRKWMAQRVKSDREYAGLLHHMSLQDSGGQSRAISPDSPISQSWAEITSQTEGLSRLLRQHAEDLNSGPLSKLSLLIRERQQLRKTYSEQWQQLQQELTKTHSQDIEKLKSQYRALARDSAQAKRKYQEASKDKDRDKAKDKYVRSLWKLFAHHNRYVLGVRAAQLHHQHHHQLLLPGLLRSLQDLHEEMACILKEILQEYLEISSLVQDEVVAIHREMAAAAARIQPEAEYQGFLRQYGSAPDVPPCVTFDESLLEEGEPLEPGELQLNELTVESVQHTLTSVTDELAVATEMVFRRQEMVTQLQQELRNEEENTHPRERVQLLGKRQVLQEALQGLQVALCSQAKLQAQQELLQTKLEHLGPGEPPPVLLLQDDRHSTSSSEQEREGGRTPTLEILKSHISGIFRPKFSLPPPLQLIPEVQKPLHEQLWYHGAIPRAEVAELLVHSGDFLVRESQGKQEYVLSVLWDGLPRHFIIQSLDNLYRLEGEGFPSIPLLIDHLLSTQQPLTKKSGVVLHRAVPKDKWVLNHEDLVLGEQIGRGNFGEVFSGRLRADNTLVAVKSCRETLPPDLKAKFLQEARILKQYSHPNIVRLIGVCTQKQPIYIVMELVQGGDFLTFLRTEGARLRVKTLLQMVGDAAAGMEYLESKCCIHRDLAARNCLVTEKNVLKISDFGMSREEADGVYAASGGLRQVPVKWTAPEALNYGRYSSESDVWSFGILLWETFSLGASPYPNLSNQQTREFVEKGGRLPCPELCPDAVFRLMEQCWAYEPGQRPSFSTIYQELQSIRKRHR
# EXPERIMENT_SUMMARY: phosphorylation enrichment, bacterial display (enrichment ratio); higher = better substrate or ligand; peptides without Tyr show the background
We use 1 as the dividing line for phosphorylation enrichment: on or above the line is rule met, below is rule not met.

Is phosphorylation enrichment at least 1? Consider ENFDDYMKEVG [FABP4_Y20]
rule met

Is phosphorylation enrichment at least 1? Consider RSHRSYSCQVM [IGLL1_Y192_R189H]
rule not met

Is phosphorylation enrichment at least 1? Consider ADFFDYGRGLS [KHDRBS3_Y304_H306R_YF]
rule not met

Is phosphorylation enrichment at least 1? Consider HICTAYELVLA [DHCR24_Y190]
rule met

Is phosphorylation enrichment at least 1? Consider LCHELYNTIRD [PBRM1_Y54_V49L]
rule met

Is phosphorylation enrichment at least 1? Consider VGNPAYRSFSN [IL4R_Y497_A492V]
rule not met

Is phosphorylation enrichment at least 1? Consider EFISESCGEII [EZH2_Y641_Y641S]
rule met

Is phosphorylation enrichment at least 1? Consider AAILGYCHGEA [XPC_Y669_R671H]
rule met

Is phosphorylation enrichment at least 1? Consider ISKKHYAGLLF [POLD1_Y809_R808H]
rule not met

Is phosphorylation enrichment at least 1? Consider GDFFRYLAEVA [YWHAG_Y133_YF]
rule met

Is phosphorylation enrichment at least 1? Consider LEHCQYVTEKV [ALDOB_Y204]
rule met

Is phosphorylation enrichment at least 1? Consider SLFPGYNFRFA [P2RX7_Y291_YF]
rule not met

Is phosphorylation enrichment at least 1? Consider TDKLFYIYTSG [SLC27A4_Y243]
rule met

Is phosphorylation enrichment at least 1? Consider HNELFYEAAEH [VANGL1_Y345_E347A_YF]
rule met

Is phosphorylation enrichment at least 1? Consider GRQGIYTKNER [GPR143_Y231_E233K]
rule not met

Is phosphorylation enrichment at least 1? Consider RFLERYIYNPE [HLA-DPB1_Y57_R61P]
rule met

Is phosphorylation enrichment at least 1? Consider ASMAKYFASGI [ACADSB_Y372_E376G_YF]
rule not met

----------
# TARGET_DESC: Fyn (UniProt P06241)
# EXPERIMENT_SUMMARY: phosphorylation enrichment, bacterial display (enrichment ratio); higher = better substrate or ligand; peptides without Tyr show the background
# key: entry, value: phosphorylation enrichment
# output: bare number, no unit

record_sequence="QDDFSYPSRQM [LDLR_Y847_G844D_YF]" value_type="phosphorylation enrichment" observed_result=0.414
record_sequence="PGGKIYISPLK [RB1_Y805_N803K]" value_type="phosphorylation enrichment" observed_result=0.513
record_sequence="GMSQAYSSSQR [DES_Y5]" value_type="phosphorylation enrichment" observed_result=0.309
record_sequence="KILAKYLLETS [NAMPT_Y175]" value_type="phosphorylation enrichment" observed_result=0.35

Missing value: phosphorylation enrichment, Fyn (UniProt P06241), entry CASQLYPRHKH [DCTN4_Y263] . Fill in?
0.38

----------
# TARGET_DESC: EPHB2 (UniProt P29323)
# Sequence (P29323 whole entry, looked up): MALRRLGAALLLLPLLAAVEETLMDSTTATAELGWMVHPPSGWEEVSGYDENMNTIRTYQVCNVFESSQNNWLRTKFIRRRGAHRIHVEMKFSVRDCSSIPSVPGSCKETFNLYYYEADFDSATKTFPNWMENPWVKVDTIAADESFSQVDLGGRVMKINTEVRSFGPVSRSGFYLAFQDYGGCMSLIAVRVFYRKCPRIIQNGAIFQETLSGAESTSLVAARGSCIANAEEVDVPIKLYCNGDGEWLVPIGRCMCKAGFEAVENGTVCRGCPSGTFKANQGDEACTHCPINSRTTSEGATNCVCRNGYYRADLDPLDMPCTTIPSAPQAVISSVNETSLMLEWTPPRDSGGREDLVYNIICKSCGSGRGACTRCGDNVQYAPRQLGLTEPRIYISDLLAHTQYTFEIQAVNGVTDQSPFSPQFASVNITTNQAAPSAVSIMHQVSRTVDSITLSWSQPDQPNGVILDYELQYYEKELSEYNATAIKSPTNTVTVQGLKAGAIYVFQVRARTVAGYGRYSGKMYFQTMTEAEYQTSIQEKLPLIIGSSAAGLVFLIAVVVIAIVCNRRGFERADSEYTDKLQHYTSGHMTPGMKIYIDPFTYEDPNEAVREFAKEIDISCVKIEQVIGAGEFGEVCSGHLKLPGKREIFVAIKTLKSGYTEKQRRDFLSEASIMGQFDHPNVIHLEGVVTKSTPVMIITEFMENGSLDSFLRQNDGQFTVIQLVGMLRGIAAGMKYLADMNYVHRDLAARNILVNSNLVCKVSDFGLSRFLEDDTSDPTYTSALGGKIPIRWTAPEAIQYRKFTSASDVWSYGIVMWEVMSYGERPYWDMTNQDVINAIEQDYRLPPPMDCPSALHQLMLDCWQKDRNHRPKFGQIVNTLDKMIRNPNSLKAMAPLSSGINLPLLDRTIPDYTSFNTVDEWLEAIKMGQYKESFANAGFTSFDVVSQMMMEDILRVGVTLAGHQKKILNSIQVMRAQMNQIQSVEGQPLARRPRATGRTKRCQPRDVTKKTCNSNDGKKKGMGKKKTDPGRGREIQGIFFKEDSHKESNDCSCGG
# EXPERIMENT_SUMMARY: phosphorylation enrichment, bacterial display (enrichment ratio); higher = better substrate or ligand; peptides without Tyr show the background
# key: entry, value: phosphorylation enrichment

Reference set, count: 2
record_sequence="IHADIYRWFNI [MARS1_Y344]" value_type="phosphorylation enrichment" observed_result=0.6
record_sequence="LGGSPYPGVPV [FGFR1_Y701]" value_type="phosphorylation enrichment" observed_result=0.615

Please find the next sequence below.
I would be grateful if you could share the reported phosphorylation enrichment for MALDIYRASFF [ALK_Y1278_R1275L_YF] .
0.584
